Readings of koff for the listed binders
Molecular target: T1, human CD73 (huCD73) protein, antigen of the Biacore assay (human, UniProt P21589 27-547, limits assumed)
T1 construct: also called human CD73 antigen
T1 sequence (looked up): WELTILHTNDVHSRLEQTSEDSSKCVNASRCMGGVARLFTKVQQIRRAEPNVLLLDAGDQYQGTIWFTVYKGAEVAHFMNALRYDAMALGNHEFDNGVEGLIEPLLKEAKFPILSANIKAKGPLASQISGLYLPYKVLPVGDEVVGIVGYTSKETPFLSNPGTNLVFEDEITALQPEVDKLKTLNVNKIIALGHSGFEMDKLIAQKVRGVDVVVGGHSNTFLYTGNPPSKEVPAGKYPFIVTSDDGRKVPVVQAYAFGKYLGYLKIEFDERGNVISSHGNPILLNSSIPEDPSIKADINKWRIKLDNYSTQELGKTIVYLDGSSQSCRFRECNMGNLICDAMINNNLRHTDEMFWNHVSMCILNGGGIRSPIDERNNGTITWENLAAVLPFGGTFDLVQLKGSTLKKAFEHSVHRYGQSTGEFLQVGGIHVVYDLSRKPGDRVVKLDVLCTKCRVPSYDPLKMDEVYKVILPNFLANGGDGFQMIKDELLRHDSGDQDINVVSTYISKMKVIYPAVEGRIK
Experiment: SPR Biacore T200; antibody captured on Protein A chip, CD73 in flow; 1:1 Langmuir
Excerpt: In this experiment, Biacore instrument was used to determine the affinity of the humanized anti-CD73 antibodies to be tested with human CD73 (huCD73) and monkey CD73 (cynoCD73). A certain amount of test antibody was affinity-captured with Protein A biosensing chip (Cat. #29127556, GE), and then a certain concentration of human or monkey CD73 antigen was allowed to flow through the surface of the chip. […]
Hi! Could you send only the number? It should be in s⁻¹, unit omitted.

Previously resolved entries follow.
Hab108.65 (antibody, V domains shown, VL6 + VH5; full-length antibody) VH: EVTLKESGPVLVKPTETLTLTCTVSGFSLKSYGIQWVRQPPGKLLEWLGVIWSGGSADYNAAFISRLTISKDTSKSQVVLTMTNMDPVDTATYYCAGQYGSVWGQGTLVTVSS VL: DIQMTQSPSSLSASVGDRVTITCRASQDIGDRLNWLQQKPGGAIKRLIYATSSLDSGVPKRFSGSGSGTEYTLTISSLQPEDFATYYCLQYAGSWTFGGGTKVEIK    6.93e-05
CH108 (antibody, V domains shown, also called chimeric antibody of mab108) VH: QVQLKQSGPGLVQPSQSLSITCTVFGFSLKSYGIQWVRQSPGKGLEWLGVIWSGGSADYNAAFISRLSISKDNSKSQVFFKMNSLQGDDTAIYYCAGQYGSVWGQGTSVTVSS VL: DIQMTQSPSSLSASLGERVSLTCRASQDIGDRLNWLQQEPDGTIKRLIYATSSLDSGVPKRFSGSRSGSDYSLTISSLESEDFVDYYCLQYAGSWTFGGGTKLEIK    5.82e-05

Kindly consider the entry below.
Value of measured koff for the entry CH127 (antibody, V domains shown, also called chimeric antibody of mab127) VH: EVQLQQSGPELVKPGESVKISCKASGYSFTAYFMNWVMQSHRKSLEWIGRIYHNNGDTFYSQKFKGKATLTVDKSSNTVHMELRSLTSEDSAVYFCATSYVGDWGQGTTLTVSS VL: DIQMTQSPSSLSASLGERVSLTCRASQDIGDSLNWLQQAPDGTLKRLIYATSSLDSGVPRRFSGSRSGSDYSLTISSLESEDFVDYYCLQYASFPWTFGGGTKLEIK : 3.31e-05
